// provenance: ChEMBL document CHEMBL1130899

- assay.system: Thromboxane-A synthase (Homo sapiens, UniProt P24557)
- Sequence (P24557 whole entry): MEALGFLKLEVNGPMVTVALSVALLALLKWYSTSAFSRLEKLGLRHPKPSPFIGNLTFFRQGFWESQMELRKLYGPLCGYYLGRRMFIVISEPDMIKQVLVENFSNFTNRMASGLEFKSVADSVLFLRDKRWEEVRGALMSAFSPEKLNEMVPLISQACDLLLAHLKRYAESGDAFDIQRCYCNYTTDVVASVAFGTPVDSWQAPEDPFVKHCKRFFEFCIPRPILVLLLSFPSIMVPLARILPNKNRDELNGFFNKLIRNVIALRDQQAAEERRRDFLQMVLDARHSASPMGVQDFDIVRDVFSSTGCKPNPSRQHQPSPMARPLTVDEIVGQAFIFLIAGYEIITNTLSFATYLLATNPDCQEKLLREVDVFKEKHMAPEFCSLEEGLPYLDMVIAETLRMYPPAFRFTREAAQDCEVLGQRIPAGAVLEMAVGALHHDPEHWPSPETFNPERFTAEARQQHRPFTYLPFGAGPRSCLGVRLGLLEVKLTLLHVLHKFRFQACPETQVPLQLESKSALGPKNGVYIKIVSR
- assay.remarks: In vitro inhibition of thromboxane synthase (TSI) activity was determined by using human serum levels of TXB2
metric.name: IC50 (nM)

// known answers, use as guide
> print(dat)
                         chemical.structure  recorded.value
1  CCCCCNC(=O)c1coc(-c2ccc(/C(=C\CCCCC(=O)O)c3cccnc3)cc2)n1            31.2
2  O=C(O)CCCC/C=C(/c1cccnc1)c1cccc(-c2nc(C(=O)NCCCCC3CCCCC3)co2)c1              19
3  O=C(O)CCCC/C=C(\c1cccnc1)c1cccc(-c2nc(C(=O)NCCCCC3CCCCC3)co2)c1              23

a. O=C(O)CC/C=C(\c1ccc(-c2nc(C(=O)NCCCCC3CCCCC3)co2)cc1)c1cccnc1
b. O=C(O)CCCC/C=C(\c1ccc(-c2nc(C(=O)NCCCCC3CCCCC3)co2)cc1)c1cccnc1
## Input Lab notebook, comparison: a versus b , higher IC50 goes to which? Write down the label attached to your selection.
## Output a

---

- assay.system: Thromboxane A2 receptor (Homo sapiens, UniProt P21731)
- Sequence (P21731 whole entry): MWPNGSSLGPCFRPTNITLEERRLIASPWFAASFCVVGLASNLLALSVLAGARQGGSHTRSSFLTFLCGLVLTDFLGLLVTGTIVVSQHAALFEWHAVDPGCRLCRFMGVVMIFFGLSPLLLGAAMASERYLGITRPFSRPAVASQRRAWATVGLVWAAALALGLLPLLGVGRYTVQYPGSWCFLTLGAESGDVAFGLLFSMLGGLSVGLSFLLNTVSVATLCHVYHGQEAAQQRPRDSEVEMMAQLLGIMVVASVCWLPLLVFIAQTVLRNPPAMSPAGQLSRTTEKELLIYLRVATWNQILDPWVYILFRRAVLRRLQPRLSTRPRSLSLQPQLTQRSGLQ
pKd: −log10 of the molar value.
metric.name: pKd

> print(dat)
                                   compound  recorded.value
1  O=C(O)CCCC/C=C(\c1cccnc1)c1ccccc1-c1nc(C(=O)NCCCCC2CCCCC2)co1            5.82
2  O=C(O)CCCC/C=C(/c1ccc(-c2nc(C(=O)NCCCCC3CCCCC3)co2)cc1)c1cccnc1            6.83

a. O=C(O)CCCC/C=C(/c1cccnc1)c1ccccc1-c1nc(C(=O)NCCCCC2CCCCC2)co1
b. O=C(O)CCCC/C=C(\c1ccccc1)c1cccnc1 [(E)-ISBOGREL]
## Input Which entry shows the lesser value of pKd here, a or b ? Write down the label attached to your selection.
## Output b

---

- assay.remarks: Partition coefficient (logP)
- Type: physicochemical
- stated.conditions: octanol/water
metric.name: logP

> print(dat)
                         chemical.structure  recorded.value
1  O=C(O)CCCC/C=C(\c1ccc(-c2nc(C(=O)NCCCCC3CCCCC3)co2)cc1)c1cccnc1            7.35
2  CCCCCNC(=O)c1coc(-c2ccc(/C(=C\CCCCC(=O)O)c3cccnc3)cc2)n1            5.23
